Test: yeast display, Sf9 membrane polyspecificity reagent, FACS + sequencing; frameworks hold sequencing errors
MEASURED_PROPERTY: polyreactivity (PSR sort gate)

1) QVQLVESGGGLVQAGGSLRLSCAASGNTFYTYAMGWYRQAPGKERELVAAITSGGRTYADSVKGRFTISRDNAKNTVYLQMNSLKPEDTEVYYCAAEFPGFYYVYPGDYWGQGTQVTVSS ... low polyreactivity
2) QVQLVESGGGLVQAGGSLRLSCAASGRTFGWKARGWYRQAPGKEMELVAAISWSGTNTYDADSVKGRFTISRDNAKNTVYLQMNSLKPEDTAVYYCAARDWTGSWNGYWSWEYNYWGQGTQVTVSS ... low polyreactivity
3) QDQLVQSGGGLVQAGGTLRLSCAASGRIIYVNAMGWYRQAPGKERDFVATITRGGSTYYADSVKGRFTISRDNAKNTVYFQMNSLQPEDTAVYYCATVRGGWKGRGHRNDYWGQGTQVTVSS ... high polyreactivity
4) QVQLVDSGGGLVQAGGSLRLSCAASGSTFLYHAMGWYRQAPGKERELLAAINSGTSTTYADSVKGRFTISRDNAKNRVYLQMNSLNPEDTAVYYCAADYYYVNYYGYYTLFDFDYWGQGTQVTVSS ... low polyreactivity
5) QVQLVESGGGLVQAGGSLRLSCAASGSTFSEYVMGWYRQAPGKERELVAVITTGTSTNYADSVKGRFTISRDNAKNTVYLQMNSLKPEDTAVYYCNAEYLYGVRYHDYWNDFDYWGQGTQVTVSS ... low polyreactivity
6) QVQLVESGGGLVQAGGSLRLSCAASGSTFTRYAMGWYRQAPGKERELVAAISSGGSTYADSVKGRFTISRDNAKNTVYLQMNSLKPEDTAVYYCAARLYTYPKGKYWGQGTQVTVSS ... high polyreactivity
7) QVQLVESGGGLVQAGGSLRLSCAASGIIFTQYAMGLYRQAPGKERELVAAISGSGGRTYYADSVKGRFTISRDIAKNTVYLQMNSLKPEDTAVYYCAARYARYGNDYWGQGTQVTVSS ... high polyreactivity
8) QVQLVESGGGLVQAGGSLRLSCAASGSTFYIYAMGWYRQAPGKERELVAVITRRGGSTSYADSVKGRFTISRDNAKNTVYLQINSLKPEDTAVYYCAAKRTWPDVKYIRYGYWGQGTQVTVSS ... high polyreactivity
9) QVQLVESGGGLVQSGGSLRLSSAASGYTFWAYPMGWYRQAPGKERELVAGISSRGSRTYYADSVKGRFTISRDNAKNTVYLQMNSLKPEDTAVYFCNALRTAQGYYPPLDYWGQGTQVTVSS ... high polyreactivity
10) QVQLVESGGGLVQAGGSLRLSCAASGSTFVPNAMGWYRQAPGKERELVAGISWSGGGTSYADSVKGRFTISRDNAKNTVYLQMNSLKPEDTAVYYCAVVGYEQNEYDYWGQGTQVTVSS ... low polyreactivity
11) QVQLVESGGGLVQGGGSLRFSCAASGSTFPSYARGWYRQAPGKERELVAAINSGGGTNYADSVKGRFTISRDNAKNTVYLHMNSLKPEDTAVYYCAKSRYDYTKTEGGYWGQGTQVTVSS ... low polyreactivity
12) QVQLVESGGRLVQAGASLRLSCDASGRIFQWYAIGWYRQAPGKVRELVAAITSGSSTYYADSVKGRFTISRDNAKNSVYLQMNSLKPEDTAVYYCAAEAVYVSSWYDDYYYFRYDYWGQGTQVTVSS ... high polyreactivity
